GI50 for assorted compounds
- System: EKVX
- assay-protocol: NCI tumour cell line growth inhibition, 48 h
Active and inactive are the calls of the source. Cut-off read from the data, not from the text of the source: active = GI50 up to about 1.1 µM and inactive = higher.

The examples below pair each entry with its known result.
compound: CC(C)(O)CCc1ccc(O)c2c(=O)c3c(O)c4c(cc3oc12)O[C@H]1OC=C[C@@]41O [AUSTOCYSTIN D]
GI50: 0.255 µM (active)

compound: Cn1c(N)nc(=O)c2c1N(C1OC(CO)C(O)C1O)CN2Cc1ccccc1 (stereo not drawn)
GI50: > 100 µM (inactive)

compound: Cc1cc(C)c(P2C(=C(O[Si](C(C)C)(C(C)C)C(C)C)C(C)(C)C)C2(c2ccccc2)c2ccccc2)c(C)c1 (stereo not drawn)
GI50: > 100 µM (inactive)

Quick one: GI50 for CC(=O)NC(CCCN(Cc1ccccc1)C(=O)N(C)N=O)C(=O)NCc1ccccc1 (stereo not drawn) ?
> 100 µM (inactive)

Quick one: GI50 for CCCC(=O)Nc1cc(/C=C/C(=O)N2CC(CCl)c3c2cc(O)c2[nH]cc(C)c32)n(C)c1 (stereo not drawn) ?
< 2.5e-05 µM (active)

Quick one: GI50 for COc1ccc2c(c1)[n+]([O-])c(C(N)=O)c(N)[n+]2[O-] ?
> 100 µM (inactive)

Quick one: GI50 for CC#C[C@@]1(O)CCCCC1O (stereo partly drawn) ?
> 100 µM (inactive)

Quick one: GI50 for O=C1Cc2c(-c3ccccc3)cc(-c3ccc(Cl)cc3)nc2-c2ccccc2N1 ?
6.92 µM (inactive)

Quick one: GI50 for CCN(CC)CCCC(C)Nc1ccnc2cc(Cl)ccc12 (stereo not drawn) [CHLOROQUINE PHOSPHATE] ?
> 57 µM (inactive)

Quick one: GI50 for N#C/C(C(=O)NCc1ccccc1)=C(/N)N1CCCC1 ?
> 100 µM (inactive)

Quick one: GI50 for O=C1c2ccccc2C(=O)N1/N=C\c1ccc(Br)cc1 ?
> 10 µM (inactive)

Quick one: GI50 for Cc1ccnc(NS(=O)(=O)c2ccc(N=[N+]=[N-])cc2)n1 ?
> 100 µM (inactive)

Quick one: GI50 for CCOC(=O)C1=NN(c2ccc(C)cc2)C2(c3ccccc3)C=C(c3ccccc3)N(C)CCN12 (stereo not drawn) ?
> 100 µM (inactive)

Quick one: GI50 for O=c1oc2cccnc2n1CCN1CCN(c2ccc(Oc3ccccc3)cc2)CC1 ?
> 100 µM (inactive)

Quick one: GI50 for c1c[nH]c(CN2CCOCC2)n1 ?
> 100 µM (inactive)

Quick one: GI50 for O=C(O)CNC(=O)c1ccc(-c2ccccc2)cc1 ?
> 100 µM (inactive)
